Target: T1, Human cKIT D1-5 (extracellular domain) (human, UniProt P10721 26-524)
T1 construct: also called human cKIT ECD; full-length cKIT ECD
T1 sequence (P10721 other isoform, or with tags, fused parts or gaps): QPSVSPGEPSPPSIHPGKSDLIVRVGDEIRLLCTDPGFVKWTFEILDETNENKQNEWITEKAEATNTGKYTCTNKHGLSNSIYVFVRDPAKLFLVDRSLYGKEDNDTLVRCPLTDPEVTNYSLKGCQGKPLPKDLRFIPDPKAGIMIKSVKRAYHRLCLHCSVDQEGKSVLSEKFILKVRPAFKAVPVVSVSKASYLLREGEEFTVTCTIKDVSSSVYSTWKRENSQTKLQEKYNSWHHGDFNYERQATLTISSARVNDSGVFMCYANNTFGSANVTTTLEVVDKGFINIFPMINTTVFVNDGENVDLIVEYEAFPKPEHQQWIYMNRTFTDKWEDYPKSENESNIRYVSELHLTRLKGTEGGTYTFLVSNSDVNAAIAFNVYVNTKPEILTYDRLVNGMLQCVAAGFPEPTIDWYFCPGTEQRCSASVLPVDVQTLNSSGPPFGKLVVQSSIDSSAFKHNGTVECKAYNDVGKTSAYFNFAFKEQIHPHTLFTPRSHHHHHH
Assay: 'in SET' by the column head; Example 4 describes Biacore SPR (antibody captured by anti-human Fc, cKIT ECD in solution)
quantity.kind: pKd
// pKd: -log10(molar conc.)

- binder: "Anti-cKIT Ab1 (antibody, human IgG1, kappa, V domains shown, Full-length human IgG1, kappa light chain; also called IgG control for J1) VH: QVQLVQSGAEVKKPGSSVKVSCKASGGTFSSYAISWVRQAPGQGLEWMGVIFPAEGAPGYAQKFQGRVTITADESTSTAYMELSSLRSEDTAVYYCARGGYISDFDVWGQGTLVTVSS VL: DIQMTQSPSSLSASVGDRVTITCRASQSISNYLAWYQQKPGKAPKLLIYDASSLQSGVPSRFSGSGSGTDFTLTISSLQPEDFATYYCQQYYYESITFGQGTKVEIKR"
  quantity.kind: "pKd"
  val: 10.03
- binder: "Anti-cKIT Ab5 (antibody, human IgG1, lambda, V domains shown, Full-length human IgG1, lambda light chain) VH: QVQLVQSGAEVKKPGESLKISCKGSGYSFTNYWIAWVRQMPGKGLEWMGIIYPSNSYTLYSPSFQGQVTISADKSISTAYLQWSSLKASDTAMYYCARVPPGGSISYPAFDHWGQGTLVTVSS VL: DIELTQPPSVSVSPGQTASITCSGDNIGSIYASWYQQKPGQAPVLVIYRDNKRPSGIPERFSGSNSGNTATLTISGTQAEDEADYYCSVTDMEQHSVFGGGTKLTVLG"
  quantity.kind: "pKd"
  val: 9.96
- binder: "Anti-cKIT Ab4 (antibody, human IgG1, lambda, V domains shown, Full-length human IgG1, lambda light chain; also called IgG control for J4) VH: QVQLQQSGPGLVKPSQTLSLTCAISGDSVSTNSAAWNWIRQSPSRGLEWLGRIYYRSQWLNDYAVSVKSRITINPDTSKNQFSLQLNSVTPEDTAVYYCARQLTYPYTVYHKALDVWGQGTLVTVSS VL: DIELTQPPSVSVSPGQTASITCSGDNLGDQYVSWYQQKPGQAPVLVIYDDTDRPSGIPERFSGSNSGNTATLTISGTQAEDEADYYCQSTDSKSVVFGGGTKLTVLG"
  quantity.kind: "pKd"
  val: 8.62

The binder Anti-cKIT Ab2 (antibody, human IgG1, kappa, V domains shown, Full-length human IgG1, kappa light chain; also called IgG control for J2) VH: QVQLVQSGAEVKKPGSSVKVSCKASGGTFSSHALSWVRQAPGQGLEWMGGIIPSFGTADYAQKFQGRVTITADESTSTAYMELSSLRSEDTAVYYCARGLYDFDYWGQGTLVTVSS VL: DIQMTQSPSSLSASVGDRVTITCRASQDISQDLAWYQQKPGKAPKLLIYDASSLQSGVPSRFSGSGSGTDFTLTISSLQPEDFAVYYCQQYYYLPSTFGQGTKVEIKR showed pKd equal to 11.15
